Tested on: CD8+ T cells
Measurement Protocol: exogenous autologous normal donor restimulation assay, TNFα/IFNγ double positive CD8+ T cells by flow cytometry
Format: cell-based, human
Condition Notes: maximum CD8+ T-cell response (TNFα and IFNγ), donor independent; peptide pool 10 μg/mL; healthy donors
hey, just use Fulfilled if measured Fold change (CD8+) vs. DMSO is less than 30 fold, otherwise Not fulfilled

// known answers, use as guide
{"columns": ["Sequence Content", "Group"],
 "data": [
  ["LEEEFISEWRRCLLCSYLQW [AS63, neoantigen, alternative splicing of IMPG2]", "Not fulfilled"],
  ["QTQEETDRDRGSWSCAVA [AS64, neoantigen, alternative splicing of IQGAP3]", "Not fulfilled"],
  ["LCAISVDRCAALPARAPAPPRPARRPHRGLCAVRRPLGAPRRFVAVAVP [AS159, neoantigen, alternative splicing of DRD4]", "Not fulfilled"],
  ["KRPMASEVSFILIQWLLKP [AS146, neoantigen, alternative splicing of PIP5K1A]", "Fulfilled"],
  ["QTDFAYDSGKRLGWGRVACDQVFS [AS3, neoantigen, alternative splicing of ETV4]", "Not fulfilled"]
]}

Please check: Fold change (CD8+) vs. DMSO for MSQESDKNGLSSRSWMNTWILPEVL [AS102, neoantigen, alternative splicing of GRHL2] , strictly under 30 fold or not? Fulfilled

Please check: Fold change (CD8+) vs. DMSO for SHALNWNKIGRMFRASRV [AS65, neoantigen, alternative splicing of LCN10] , strictly under 30 fold or not? Not fulfilled
